Test system: TK-10 renal
Assay: NCI tumour cell line growth inhibition, 48 h
experimentalEndpoint: TGI

[
  {
    "compound": "O=S1(=O)OCCOS(=O)(=O)C1Cc1nc2ccccc2[nH]1",
    "experimentalEndpoint": "TGI",
    "assayResult": "> 100 µM"
  },
  {
    "compound": "O=S1(=O)CCN(c2ccccc2CC(c2c[nH]c3ccccc23)c2c[nH]c3ccccc23)CC1",
    "experimentalEndpoint": "TGI",
    "assayResult": "19.8 µM"
  },
  {
    "compound": "CC(C)(CO)N=Cc1ccccc1[O-].CC(C)(CO)N=Cc1ccccc1[O-].[Co+2]",
    "experimentalEndpoint": "TGI",
    "assayResult": "> 100 µM"
  },
  {
    "compound": "CCN(CC)CCOc1ccc(/C=C2\\CC3C4CC=C5C[C@@H](OC(C)=O)CC[C@]5(C)C4CC[C@]3(C)C2=O)cc1OC (stereo partly drawn)",
    "experimentalEndpoint": "TGI",
    "assayResult": "6.1 µM"
  },
  {
    "compound": "CCOc1ccc(-c2oc(/C=N/NS(=O)(=O)c3ccc(C)cc3)c([N+](=O)[O-])c2-c2ccc(OCC)cc2)cc1",
    "experimentalEndpoint": "TGI",
    "assayResult": "70.3 µM"
  },
  {
    "compound": "CCCCCCCCCCCCCCCCOCC(Cl)COP(=O)(O)OP(=O)(O)OCC1OC(n2cnc3c(N)ncnc32)C(O)C1O (stereo not drawn)",
    "experimentalEndpoint": "TGI",
    "assayResult": "> 100 µM"
  },
  {
    "compound": "CCCCCCCCCCCCCCCCS(=O)(=O)c1ccc(NN)cc1",
    "experimentalEndpoint": "TGI",
    "assayResult": "> 10 µM"
  },
  {
    "compound": "C=C(CNCCc1ccc(O)cc1)[C@@H]1CC[C@]2(CO)CC[C@]3(C)[C@H](CC[C@@H]4[C@@]5(C)CCC(N)C(C)(C)[C@@H]5CC[C@]43C)[C@@H]12 (stereo partly drawn)",
    "experimentalEndpoint": "TGI",
    "assayResult": "3.22 µM"
  }
]

----------
Listing of recorded TGI by entry.
System: SR leukemia
Test: NCI tumour cell line growth inhibition, 48 h

[
  {
    "compound": "O=C(CSc1nc2ccc(I)cc2c(=O)n1Cc1ccccc1)NN1C(=O)CCC1=O",
    "TGI": "> 100 µM"
  },
  {
    "compound": "COc1ccc2[nH]c3c(=O)[nH]ncc3c2c1",
    "TGI": "> 100 µM"
  },
  {
    "compound": "CC(=O)Nc1ccc(C(=O)N2N=C(C)/C(=C/c3ccc(O)cc3)C2=O)cc1",
    "TGI": "> 100 µM"
  },
  {
    "compound": "CCCn1cnc2c(SCc3ccccc3)nc(N)nc21",
    "TGI": "> 100 µM"
  },
  {
    "compound": "O=S(=O)(O)C1CCC(O)C2[N-]CCCC21.O=S(=O)(O)C1CCC(O)C2[N-]CCCC21.[Zn+2] (centres undefined)",
    "TGI": "> 100 µM"
  },
  {
    "compound": "Cc1c2cccc-2ccc2c1[nH]c1ccccc12",
    "TGI": "18.9 µM"
  },
  {
    "compound": "CN(C)CCCC1(c2ccc(F)cc2)OCc2cc(-c3cncc4ccccc34)ccc21 (centres undefined)",
    "TGI": "17.9 µM"
  },
  {
    "compound": "CC(C)(C)c1cc(CCC(=O)Nc2ccc(Cl)cc2Cl)nc(N)n1",
    "TGI": "> 100 µM"
  },
  {
    "compound": "CNc1ccc(Cl)cc1S(=O)(=O)c1ccccc1[N+](=O)[O-]",
    "TGI": "> 100 µM"
  },
  {
    "compound": "O=C(Nc1ccccc1O)c1ccc(CNC(=O)c2ccsc2Nc2ccnc(C(F)(F)F)c2)cc1",
    "TGI": "29.1 µM"
  },
  {
    "compound": "O=C(OCc1ccccc1C1CSCSC1)c1cc(C(=O)OCc2ccccc2C2CSCSC2)c(C(=O)OCc2ccccc2C2CSCSC2)cc1C(=O)OCc1ccccc1C1CSCSC1",
    "TGI": "> 100 µM"
  },
  {
    "compound": "O=[N+]([O-])C1C2C=CC(C2)[C@H]1c1ccc(Cl)cc1Cl (some centres undefined)",
    "TGI": "> 100 µM"
  },
  {
    "compound": "c1ccc([P+](c2ccccc2)(c2ccccc2)c2ccc([P+](c3ccccc3)(c3ccccc3)c3ccccc3)cc2)cc1",
    "TGI": "> 100 µM"
  },
  {
    "compound": "Oc1[nH]c2ccccc2c1/C=c1/cc2c(c(-c3ccc(C(F)(F)F)cc3)n1)=Nc1ccccc1-2",
    "TGI": "11.3 µM"
  },
  {
    "compound": "CC(C)C1CC(CO)(CNc2cc(Cl)nc(N)n2)C1 (centres undefined)",
    "TGI": "> 100 µM"
  },
  {
    "compound": "COc1ccc(/C=C2\\CCC(CNc3ccc(Br)cc3)C2=O)cc1 (centres undefined)",
    "TGI": "87.2 µM"
  },
  {
    "compound": "O=C(CCN1CCCC1)Nc1ccc2c(Nc3ccccc3)c3ccccc3nc2c1",
    "TGI": "1.45 µM"
  },
  {
    "compound": "CCCCCCCCCCCCCCCCS(=O)(=O)c1ccc(NN)cc1",
    "TGI": "> 10 µM"
  },
  {
    "compound": "CC1=C2NCN(C)N=C2C(C#N)(C#N)C1(C#N)C#N",
    "TGI": "35.8 µM"
  },
  {
    "compound": "O=P(O)(O)CN1CCNCCN(CP(=O)(O)O)CCNCC1",
    "TGI": "4.16 µM"
  },
  {
    "compound": "O=C1OI(C#Cc2ccccc2)c2ccccc21",
    "TGI": "5.53 µM"
  },
  {
    "compound": "O=CNNC(=O)Nc1ccc(Cl)cc1",
    "TGI": "> 100 µM"
  },
  {
    "compound": "COc1ccc(/C=C(/C(=O)n2cnnn2)c2cc(OC)c(OC)c(OC)c2)cc1",
    "TGI": "> 100 µM"
  },
  {
    "compound": "Cc1cc2occ(-c3ccc(Cl)cc3)c2c(=O)o1",
    "TGI": "> 100 µM"
  }
]

----------
Test system: HL-60(TB) leukemia
Test: NCI tumour cell line growth inhibition, 48 h; in the data active = GI50 below about 0.43 µM; inactive = the rest
Labels: active, inactive

[
  {
    "compound": "O=C(Cc1ccc(/C=C/C(=O)c2ncc[nH]2)cc1)Nc1ccc(C(F)(F)F)cc1",
    "category": "inactive"
  },
  {
    "compound": "C1=C2CNCC3=Cc4ccc5ccccc5c4OC23Oc2c1ccc1ccccc21",
    "category": "inactive"
  },
  {
    "compound": "O=C(Nc1cc(S(=O)(=O)c2ccc(Cl)cc2)ccc1Cl)c1cc(I)cc(I)c1O",
    "category": "inactive"
  },
  {
    "compound": "CCCCCCOc1ccc(C(=N)N(CCCC)CCCC)c2ccccc12",
    "category": "inactive"
  },
  {
    "compound": "Oc1[nH]c2ccccc2c1/C=c1/cc2c(c(-c3ccc(C(F)(F)F)cc3)n1)=Nc1ccccc1-2",
    "category": "inactive"
  },
  {
    "compound": "Cc1ccc(/C=C2\\CNC/C(=C\\c3ccc(C)cc3)C2=O)cc1",
    "category": "inactive"
  },
  {
    "compound": "COc1ccc(C(=O)C[C@]2(O)C(=O)Nc3c(Cl)ccc(Cl)c32)cc1",
    "category": "active"
  },
  {
    "compound": "COc1cc(-n2cc(-c3cc(O)c(C/C=C(\\C)CCC=C(C)C)c(O)c3)nn2)cc2c1O[C@]1(C)CC[C@@H](O)C(C)(C)[C@H]1C2",
    "category": "active"
  },
  {
    "compound": "CN(C)C/C=C/C(=O)Nc1ccc(C(=O)N2CCC[C@@H](Nc3ncc(Cl)c(-c4c[nH]c5ccccc45)n3)C2)cc1",
    "category": "active"
  },
  {
    "compound": "NC(=O)c1cc(I)ccc1NC(=O)COc1ccccc1",
    "category": "active"
  },
  {
    "compound": "COc1ccc(-c2nc3c(c(=O)n2C(C)=O)C(c2ccc(Cl)cc2)c2sc4c(Cl)cccc4c2O3)cc1 (stereo not drawn)",
    "category": "active"
  },
  {
    "compound": "CC1(C)C2CCC13C(=O)C1OC3(C2)C2C(=O)c3c(O)cccc3C(=O)C12 (stereo not drawn)",
    "category": "active"
  },
  {
    "compound": "O=C(O)C1C(C(=O)O)C2(Cl)C(Cl)=C(Cl)C1(Cl)C2(Cl)Cl.[Cd] (stereo not drawn)",
    "category": "inactive"
  },
  {
    "compound": "CC12OC(C(=O)C13CCC3)C1C(=O)c3ccccc3C(=O)C12 (stereo not drawn)",
    "category": "inactive"
  },
  {
    "compound": "COc1ccc(-c2cc(/C=C/C(=O)c3cc(OC)c(OC)c(OC)c3)[nH]n2)cc1OC",
    "category": "inactive"
  },
  {
    "compound": "CCc1cccc(CC)c1/C=C/c1cncc(C(=O)NC)c1",
    "category": "inactive"
  },
  {
    "compound": "COc1cc2nnn3c4ncccc4c(N=O)c3c2cc1OC",
    "category": "active"
  },
  {
    "compound": "CCOCNc1ccc(N2C(=O)/C(=C/c3ccc(N(CC)CC)cc3)N=C2c2ccccc2)cc1",
    "category": "inactive"
  }
]
